# tgt: 6×His-tagged FcRn/β2m (UniProt P55899 24-365; P61769 21-119)
# Sequence (P55899 24-365, chain 1 of 2): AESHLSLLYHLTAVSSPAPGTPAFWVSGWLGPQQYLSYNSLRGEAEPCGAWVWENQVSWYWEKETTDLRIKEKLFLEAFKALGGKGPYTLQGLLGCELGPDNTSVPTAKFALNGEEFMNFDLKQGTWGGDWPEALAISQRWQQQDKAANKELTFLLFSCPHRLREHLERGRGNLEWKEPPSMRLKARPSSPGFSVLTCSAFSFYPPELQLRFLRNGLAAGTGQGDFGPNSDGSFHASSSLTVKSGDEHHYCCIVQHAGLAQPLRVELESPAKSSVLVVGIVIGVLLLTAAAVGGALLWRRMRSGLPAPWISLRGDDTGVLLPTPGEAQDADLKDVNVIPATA
# Sequence (P61769 21-119, chain 2 of 2): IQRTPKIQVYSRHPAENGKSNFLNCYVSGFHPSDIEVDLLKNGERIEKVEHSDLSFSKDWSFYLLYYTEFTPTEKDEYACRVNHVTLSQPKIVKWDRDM
# experimental_protocol: BLI; pH 7.4; FcRn immobilised
reported_endpoint: Kd (µM)
Give the value in µM but do not write µM after it.

binder	Kd, µM
VRC07-523LS.v1 (antibody) chain 1: QVRLSQSGGQMKKPGDSMRISCRASGYEFINCPINWIRLAPGKRPEWMGWMKPRFGAVSYARQLQGRVTMTRQLSQDPDDPDWGTAFLELRSLTSDDTAVYFCTRGKYCTARDYYNWDFEHWGQGTPVTVSS chain 2: LTQSPGTLSLSPGETAIISCRTSQYGSLAWYQQRPGQAPRLVIYSGSTRAAGIPDRFSGSRWGPDYNLTISNLESGDFGVYYCQQYEFFGQGTKVQVD	0.93
VRC07-523LS.v37 (antibody) chain 1: QVRLSQSGGQMKKPGDSMRISCQASGYEFINCPINWIRLAPGKRPEWMGWMKPRFGAVSYARQLQGRVTMTRQLSQDPDDPDWGTAFLELRSLTSDDTAVYFCTRGQYCTARDYYNWDFEHWGQGTPVTVSS chain 2: LTQSPGTLSLSPGETAIISCETSQYGSLAWYQQRPGQAPRLVIYSGSTRAAGIPDRFSGSRWGPDYNLTISNLESGDFGVYYCQQYEFFGQGTKVQVD	5.4

Record VRC07-523LS.v34 (antibody) chain 1: QVRLSQSGGQMKKPGDSMRISCSASGYEFINCPINWIRLAPGKRPEWMGWMKPRFGAVSYARQLQGRVTMTRQLSQDPDDPDWGTAFLELRSLTSDDTAVYFCTRGSYCTARDYYNWDFEHWGQGTPVTVSS chain 2: LTQSPGTLSLSPGETAIISCETSQYGSLAWYQQRPGQAPRLVIYSGSTRAAGIPDRFSGSRWGPDYNLTISNLESGDFGVYYCQQYEFFGQGTKVQVD , field Kd: 6
